Target: Neu5Ac(a2-3)[GalNAc(b1-4)]Gal(b1-4)Glc
Test: glycan array binding signal (z-score within array); higher = stronger binding
Conditions: glycan notation: IUPAC condensed, linker removed
The entries come from a sample that favours the strongest signals as a whole.
If the reported glycan array binding signal (z-score) equals or exceeds -0.2, assign Criterion met. If not, assign Criterion not met.

Reference set (2 entries):
Query: Answer whether glycan array binding signal (z-score) of Epa12 (Candida glabrata) (protein) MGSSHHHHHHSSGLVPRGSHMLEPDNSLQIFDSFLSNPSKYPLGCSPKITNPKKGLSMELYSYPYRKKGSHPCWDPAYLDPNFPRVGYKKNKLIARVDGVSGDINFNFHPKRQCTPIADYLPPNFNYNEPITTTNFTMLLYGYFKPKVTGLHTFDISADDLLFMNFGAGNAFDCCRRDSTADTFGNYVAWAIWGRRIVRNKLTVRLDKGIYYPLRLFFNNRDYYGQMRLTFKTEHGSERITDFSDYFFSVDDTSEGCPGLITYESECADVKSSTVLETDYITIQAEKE is greater than or equal to -0.2.
Result: Criterion not met

Query: Repeat for the following binder: SJCP1084 (Schistosoma japonicum) (protein) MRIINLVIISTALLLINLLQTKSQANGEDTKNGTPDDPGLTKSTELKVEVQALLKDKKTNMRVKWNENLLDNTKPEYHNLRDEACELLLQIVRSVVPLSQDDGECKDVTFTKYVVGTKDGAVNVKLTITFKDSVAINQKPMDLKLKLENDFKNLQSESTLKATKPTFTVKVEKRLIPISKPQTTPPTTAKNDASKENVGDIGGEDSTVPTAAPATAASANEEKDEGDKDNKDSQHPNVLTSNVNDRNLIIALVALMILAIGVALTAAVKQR
Result: Criterion not met

Continuing:
Query: Could you tell me if the measured glycan array binding signal (z-score) of AFL6 (Aspergillus fumigatus), Q4WKJ1 (protein) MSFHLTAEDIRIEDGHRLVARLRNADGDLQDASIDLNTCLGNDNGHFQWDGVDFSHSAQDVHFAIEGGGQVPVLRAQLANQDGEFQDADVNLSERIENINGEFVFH reaches -0.2 or more?
Result: Criterion met

Query: One more binder: PLU (Photorhabdus luminiscence) (protein) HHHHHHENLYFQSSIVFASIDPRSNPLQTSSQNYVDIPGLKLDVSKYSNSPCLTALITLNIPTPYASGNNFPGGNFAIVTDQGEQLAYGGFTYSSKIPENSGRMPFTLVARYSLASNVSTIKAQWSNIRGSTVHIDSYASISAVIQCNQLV
Result: Criterion not met

Query: Can you check Epa19 (Candida glabrata) (protein) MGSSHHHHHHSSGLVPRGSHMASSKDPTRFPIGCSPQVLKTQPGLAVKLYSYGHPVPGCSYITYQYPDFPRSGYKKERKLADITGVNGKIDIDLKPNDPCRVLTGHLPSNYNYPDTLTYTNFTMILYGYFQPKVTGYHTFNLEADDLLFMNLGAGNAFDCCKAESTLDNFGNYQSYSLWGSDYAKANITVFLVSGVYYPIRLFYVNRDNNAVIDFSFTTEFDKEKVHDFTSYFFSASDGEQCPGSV next?
Result: Criterion met

Query: Ok, now MIC1 (Toxoplasma gondii), O00834 (protein) VGPEAYGEASHSHSPASGRYIQQMLDQRCQEIAAELCQSGLRKMCVPSSRIVARNAVGITHQNTLQWRCFDTASLLESNQENNGVNCVDDCGHTIPCPGGVHRQNSNHATRHEILSKLVEEGVQRFCSPYQASANKYCNDKFPGTIARRSKGFGNNVEVAWRCYEKASLLYSVYAECASNCGTTWYCPGGRRGTSTELDKRHYTEEEGIRQAIGSVDSPCSEVEVCLPKDENPPLCLDESGQISRT
Result: Criterion met

Query: Try this binder next: Wzz (Escherichia coli) (protein) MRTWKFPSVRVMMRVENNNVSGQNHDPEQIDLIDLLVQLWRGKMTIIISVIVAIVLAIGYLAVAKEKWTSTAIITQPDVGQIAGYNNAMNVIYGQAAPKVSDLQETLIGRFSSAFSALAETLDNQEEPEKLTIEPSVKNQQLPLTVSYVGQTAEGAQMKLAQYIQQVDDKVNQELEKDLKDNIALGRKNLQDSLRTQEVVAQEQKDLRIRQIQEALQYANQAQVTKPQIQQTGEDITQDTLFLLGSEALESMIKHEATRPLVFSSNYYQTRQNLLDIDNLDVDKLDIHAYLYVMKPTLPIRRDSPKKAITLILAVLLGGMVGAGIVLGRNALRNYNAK
Result: Criterion not met

Query: What would you report for BC2L-A (Burkholderia cenocepacia), Q1BKJ8_BURCA (protein) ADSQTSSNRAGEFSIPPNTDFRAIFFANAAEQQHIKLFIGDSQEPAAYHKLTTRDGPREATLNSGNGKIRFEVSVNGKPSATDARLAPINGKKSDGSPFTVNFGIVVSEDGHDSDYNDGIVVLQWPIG ?
Result: Criterion not met

Query: Now give it for AFL5 (Aspergillus fumigatus), Q4WB00 (protein) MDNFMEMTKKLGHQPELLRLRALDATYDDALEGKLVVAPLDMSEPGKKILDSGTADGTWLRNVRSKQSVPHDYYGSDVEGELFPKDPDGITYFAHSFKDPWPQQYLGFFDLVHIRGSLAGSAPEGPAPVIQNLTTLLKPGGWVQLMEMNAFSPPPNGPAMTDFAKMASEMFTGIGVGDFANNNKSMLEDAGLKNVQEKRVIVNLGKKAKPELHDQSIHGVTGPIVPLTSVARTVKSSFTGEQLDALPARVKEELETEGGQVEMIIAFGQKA too.
Result: Criterion not met

Query: Follow-up entry: RBMC1 (Vibrio cholerae) (protein) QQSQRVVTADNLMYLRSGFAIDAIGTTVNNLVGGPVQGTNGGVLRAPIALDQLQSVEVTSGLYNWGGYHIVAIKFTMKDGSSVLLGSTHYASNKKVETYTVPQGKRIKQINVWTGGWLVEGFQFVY
Result: Criterion not met
